This collection of values is drawn from PubChem BioAssay AID330.

Test system: P388 leukemia ip, CD2F1 mice, survival T/C
Assay: NCI In Vivo Anticancer Drug Screen. Data for tumor model P388 Leukemia (intraperitoneal) in CD2F1 (CDF1) mice
Conditions: endpoint: median survival time; dose: 200.0 mg/kg/injection; schedule: Q01DX009 (ip); vehicle: Klucel (hydroxypropylcellulose) (HPC)
Inconclusive results and toxic doses are left out. The calls were made as follows: active = survival T/C of 150% or more; inactive = T/C below 125% in these data.
Select the matching outcome among active, inactive

For O=P(c1ccccc1)(c1ccccc1)C(O)c1cccs1 (configuration not stated) , what call appears in the results of this test?
inactive

// repeat for CC(=O)OC1CCC2(C)C(CCC3C2CCC2(C)C3CC(CC(=O)O)C2OC(C)=O)C1 (configuration not stated) and report
inactive

Also Nc1cc2c(cc1O)C1C(C3C2C2(Cl)C(Cl)C(Cl)C3(Cl)C2(Cl)Cl)C2(Cl)C(Cl)C(Cl)C1(Cl)C2(Cl)Cl (configuration not stated) ?
inactive

Let us now turn to Cc1cc(C)cc(N(C2=NCCS2)C2=NCCS2)c1
inactive

And what about the compound CC12CC3(C)CC(C)(C1)CC(Br)(C2)C3 ?
inactive

O=C1CCC(N2C(=O)C3CCCCC3C2=O)C(=O)O1 (configuration not stated) ?
inactive

Consider next the compound CC1=C/C(=N\N2CCOCC2)C(C(O)(C(F)(F)F)C(F)(F)F)C(C)(C)C1 (configuration not stated) in the same way.
inactive

Let us now turn to COC(=O)Nc1cn2cc(C(=O)c3cccs3)ccc2n1
active

Note, next up: O=C(Sc1ccc(Cl)cc1)N1CCN(C(=O)Sc2ccc(Cl)cc2)CC1
inactive

CSc1nc(-c2ccccc2)cc(=O)[nH]1 ?
inactive

Another: COc1ccc(CNC(=O)C2C(=O)C(=O)N(Cc3ccc(OC)c(OC)c3)C2=O)cc1OC (configuration not stated)
inactive

Check CC1C(c2ccccc2)OCCN1C(=S)NC(=O)c1ccccc1 (configuration not stated) too.
inactive

====

For each of the compounds below, state its T/C.
Test system: P388 leukemia ip, CD2F1 mice, survival T/C
Assay: NCI In Vivo Anticancer Drug Screen. Data for tumor model P388 Leukemia (intraperitoneal) in CD2F1 (CDF1) mice
Details: endpoint: median survival time; dose: 200.0 mg/kg/injection; schedule: Q01DX005 (ip); vehicle: Klucel (hydroxypropylcellulose) (HPC); higher = longer survival
Toxic doses and inconclusive results are not listed.

Given Cc1ccsc1C(=O)c1ccccc1[N+](=O)[O-] , state its recorded T/C.
100 % of control

Another compound to look at: CP(=O)(OCCOCCOP(C)(=O)c1ccccc1)c1ccccc1 (centres undefined)
101 % of control

And CNc1nc2c(N)ncnc2n1C1CC(O)C(CO)O1 (centres undefined) ?
104 % of control

What do we get for O=C1C2=C(Nc3cc(Cl)ccc3N2)OC1c1ccc(Cl)c(Cl)c1 (centres undefined) ?
88 % of control

Request: O=C1c2ccccc2C(=O)N1/N=[N+](\[O-])N1Cc2ccccc2C1
99 % of control

Here is the next compound: CC(=O)NC(c1nc2cc(C)c(C)cc2[nH]1)c1nc2cc(C)c(C)cc2[nH]1
110 % of control

Field entry: COC(=S)SSC(=S)NCC(C)NC(=S)SSC(=S)OC (centres undefined)
105 % of control

Further, for CC1(c2ccc(Cl)cc2)OC(=O)CC(=O)O1 ?
100 % of control

Also C=C(C)c1nc(N)nc(NCc2ccccc2)n1 , if possible.
109 % of control

// repeat for O=c1cc(C(F)(F)F)c2cc3c4c(c2o1)CCCN4CCC3 and report
99 % of control

Follow-up entry: CCCCN(CCCC)CCNc1ccc(C)c2sc3ccc([N+](=O)[O-])cc3c(=O)c12
100 % of control

Please do the same for CN(C)C1=Nc2ccccc2NC(=O)C1 as well.
105 % of control

Now consider CN(Cc1ccccc1)C(c1ccccc1)C1(c2ccccc2)Cc2ccccc2C(=O)O1 (centres undefined) and answer again.
87 % of control

Clc1ccc2[nH]c3ccc(Cl)cc3c2c1 ?
113 % of control

Moving on to the next compound: COc1cc([C@@H]2c3cc(O)c(OC)cc3C[C@H]3C(=O)OC[C@@H]23)ccc1O
100 % of control

Try this compound too: C=CC(=O)NC(O)C(Cl)(Cl)Cl (centres undefined)
102 % of control

Next: COC(=O)c1c(C)oc2ccccc2c1=O
103 % of control

Now this one: C/C(=C1/N=C(c2ccccc2)OC1=O)c1ccc(C)cc1
106 % of control

Also need O=C1c2ccccc2C(=O)N1OCc1cccc(C(F)(F)F)c1 , thanks.
86 % of control

====

Please respond with reported T/C for every item in the list.
System: P388 leukemia ip, CD2F1 mice, survival T/C
Test: NCI In Vivo Anticancer Drug Screen. Data for tumor model P388 Leukemia (intraperitoneal) in CD2F1 (CDF1) mice
Details: endpoint: median survival time; dose: 6.25 mg/kg/injection; schedule: Q01DX005 (ip); vehicle: saline with Tween-80; higher = longer survival
Toxic doses and inconclusive results are not listed.

Which T/C is listed for O=C(c1cccs1)C1NO[N+]([O-])=C1c1cccs1 (centres undefined) ?
100 % of control

Continue with CCCCN(CCCC)CCCNc1nccc2ccccc12
106 % of control

Moving on to CC(=O)OC(CC=C(C)C)C1=CC(=O)c2c(O)ccc(O)c2C1=O (centres undefined)
109 % of control

Then CNC(C)Cc1ccccc1 (centres undefined) (tested in a mixture with another compound) ?
112 % of control

====

System: P388 leukemia ip, CD2F1 mice, survival T/C
Assay: NCI In Vivo Anticancer Drug Screen. Data for tumor model P388 Leukemia (intraperitoneal) in CD2F1 (CDF1) mice
Conditions: endpoint: median survival time; dose: 50.0 mg/kg/injection; schedule: Q01DX005 (ip); vehicle: saline with Tween-80; higher = longer survival
Toxic doses and inconclusive results are not listed.
READOUT: T/C

Look at this compound and give its reported T/C. O=C1NC(=O)C2(Cc3cccc4cccc2c34)N1 (stereo not given)
103 % of control

Next entry: O=C(O)CCCC(C(=O)O)N1C(=O)c2ccccc2C1=O (stereo not given)
94 % of control

Entry to check: COC(=O)N/N=C(/CC1(O)C(=O)Nc2ccccc21)c1ccc(Cl)cc1Cl (stereo not given)
99 % of control

And what about the compound N#CCCN(CCC#N)Cc1c(O)ccc2ccccc12 ?
104 % of control

Try the compound NC1CCC(O)CC1C(=O)O (stereo not given)
99 % of control

====

Test system: P388 leukemia ip, CD2F1 mice, survival T/C
Assay: NCI In Vivo Anticancer Drug Screen. Data for tumor model P388 Leukemia (intraperitoneal) in CD2F1 (CDF1) mice
Settings: endpoint: median survival time; dose: 100.0 mg/kg/injection; schedule: Q01DX009 (ip); vehicle: suspension in saline; higher = longer survival
Toxic doses and inconclusive results are not listed.
Kindly state T/C for each of the entries shown.

# lookup: T/C of COc1ccc(CSC(=S)Nc2ccc(Br)c(C)c2)cc1
101 % of control

How about this molecule: N#CC(C(O)c1ccccc1)N1CCOCC1 (stereo not drawn)
109 % of control

Next record, please: CSc1ccc(N2C(=O)CCSC2=S)cc1Cl
110 % of control

Request: NC(CCCCNC(=O)CCCCCCCCC(=O)NCCCCC(N)C(=O)O)C(=O)O (stereo not drawn)
105 % of control

Moving on to CSc1ccc(NC(=S)SCc2ccc3c(c2)OCO3)cc1Cl
101 % of control

What about this molecule? CN(C)[C@@H]1C(=O)C(C(=O)NCNC2(C(=O)O)CCCC2)=C(O)[C@@]2(O)C(=O)C3=C(O)c4c(O)cccc4[C@@](C)(O)[C@H]3C[C@@H]12
91 % of control

Now consider CC(C(O)c1cc2c(c3ccccc13)CCCC2)N1CCOCC1 (stereo not drawn) .
104 % of control

Same thing, different molecule: O=C1CSC(=S)N1c1ccc(I)cc1
101 % of control

====

System: P388 leukemia ip, CD2F1 mice, survival T/C
Test: NCI In Vivo Anticancer Drug Screen. Data for tumor model P388 Leukemia (intraperitoneal) in CD2F1 (CDF1) mice
Details: endpoint: median survival time; dose: 100.0 mg/kg/injection; schedule: Q04DX002 (ip); vehicle: saline with Tween-80; higher = longer survival
Toxic doses and inconclusive results are not listed.
Exercise: state measured T/C for each of the compounds provided.

Recorded T/C of CC1(Cl)C(c2ccccc2)=[N+]([O-])[N+]([O-])=C1c1ccccc1 , please.
112 % of control

Please do the same for CNc1nc(-c2ccc(OC)cc2)c(-c2ccc(OC)cc2)[nH]1 as well.
99 % of control

Same question for Cc1cc2c(c(=O)o1)C1=S(SC(c3ccccc3)=C1)S2 (stereo not given) please.
90 % of control

Then CCCCCC1CCCC2NC(=O)CCC12 (stereo not given) ?
104 % of control

Ok, now ClCSc1nc2ccccc2o1
102 % of control

For CS/C(N)=N/NC(=O)CCC(=O)Nc1cc(C)ccc1C then?
102 % of control

Next compound: CCn1cc(C(=O)O)c(=O)c2ccc(C)[n+](CCSC(=N)N)c21
104 % of control

Consider next the compound CC(=O)/C=N/OC(=O)c1ccccc1 in the same way.
104 % of control

Follow-up entry: Cc1c2ncccc2c(C)c2c1[nH]c1ccccc12
98 % of control

Moving on to the next compound: OCC(O)C1OC(c2ccccc2)OC2COC(c3ccccc3)OC21 (stereo not given)
97 % of control
